Exercise: state measured concentration at 24 h for each of the compounds provided.
test: Pharmacokinetic study in chimps after oral and intravenous co-dosing: unmetabolized compound in urine; assay type: in vivo; conditions: both sexes, chimpanzee; IV, 50 mg of each compound co-administered; average of chimps; urine collected 24 hours post-dose; read-out: Unmetabolized Compound Found in Urine
Numbers only, in ng/mL.

>>> test_value("COC[C@@H](NC(C)=O)C(=O)NCc1ccccc1 [Lacosamide, reference compound]")
9520

Prompt: Suppose we examine the compound [2H]C([2H])([2H])OC[C@@H](NC(=O)C([2H])([2H])[2H])C(=O)NCc1ccccc1 [Compound 120] ; what concentration at 24 h value has been reported?
Completion: 11000
